Molecular target: Alpha adrenergic receptor 1A (α1AR) (Homo sapiens, UniProt P35348)
Construct: Full-length complementary DNAs of human GPCRs without stop codons were subcloned in frame with the tobacco etch virus (TEV) protease vector; expressed in transfected cells
Sequence (P35348 1-466): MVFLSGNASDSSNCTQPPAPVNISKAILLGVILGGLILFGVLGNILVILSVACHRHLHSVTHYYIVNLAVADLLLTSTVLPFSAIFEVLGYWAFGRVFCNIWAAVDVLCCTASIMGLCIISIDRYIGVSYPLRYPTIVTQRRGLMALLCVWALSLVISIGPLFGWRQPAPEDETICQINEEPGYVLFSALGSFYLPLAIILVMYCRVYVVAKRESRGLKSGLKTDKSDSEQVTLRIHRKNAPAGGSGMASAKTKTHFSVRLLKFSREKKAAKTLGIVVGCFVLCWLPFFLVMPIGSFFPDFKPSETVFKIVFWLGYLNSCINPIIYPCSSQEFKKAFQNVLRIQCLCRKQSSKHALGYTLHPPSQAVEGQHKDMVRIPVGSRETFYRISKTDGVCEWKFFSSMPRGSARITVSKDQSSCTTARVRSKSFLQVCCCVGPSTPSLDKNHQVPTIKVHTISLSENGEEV
Experiment: α1AR/14-3-3ε LinkLight assay (agonist-induced GPCR-mediated 14-3-3 signaling)
Format: cell-based
Details: α1A-TEV/14-3-3ε-pLuc cells, adrenergic agonist panel; Figure 3e; read-out: potency (rank order) in the 14-3-3 signaling assay
pEC50: −log10 of the molar value.
test.readout: pEC50

* Brc1c(NC2=NCCN2)ccc2nccnc12 | 7.26
* c1ccc(C2CC2)c(OCC2=NCCN2)c1 | 8.76
* N=C(N)NC(=O)Cc1c(Cl)cccc1Cl | 7.91
* COc1ccc(OC)c(C(O)C(C)N)c1 (stereo not shown) | 7.95

---

target: Alpha adrenergic receptor 1A (α1AR) (Homo sapiens); construct: Full-length complementary DNAs of human GPCRs without stop codons were subcloned in frame with the tobacco etch virus (TEV) protease vector; expressed in transfected cells; experiment: α1AR/14-3-3ε LinkLight assay (agonist-induced GPCR-mediated 14-3-3 signaling); type: cell-based; settings: HEK293 stably co-expressing α1A-TEV/14-3-3ε-pLuc; Figure 2a; read-out: EC50, α1AR-mediated 14-3-3 signaling
test.readout: EC50 (nM)

• c1ccc(C2CC2)c(OCC2=NCCN2)c1 = 9.5
